Provide the recorded koff for the entries that follow.
Molecular target: T1, human DLL3 (ACRO, DLL3-H52H4) (human, UniProt Q9NYJ7 27-492)
T1 construct: Bought
T1 sequence: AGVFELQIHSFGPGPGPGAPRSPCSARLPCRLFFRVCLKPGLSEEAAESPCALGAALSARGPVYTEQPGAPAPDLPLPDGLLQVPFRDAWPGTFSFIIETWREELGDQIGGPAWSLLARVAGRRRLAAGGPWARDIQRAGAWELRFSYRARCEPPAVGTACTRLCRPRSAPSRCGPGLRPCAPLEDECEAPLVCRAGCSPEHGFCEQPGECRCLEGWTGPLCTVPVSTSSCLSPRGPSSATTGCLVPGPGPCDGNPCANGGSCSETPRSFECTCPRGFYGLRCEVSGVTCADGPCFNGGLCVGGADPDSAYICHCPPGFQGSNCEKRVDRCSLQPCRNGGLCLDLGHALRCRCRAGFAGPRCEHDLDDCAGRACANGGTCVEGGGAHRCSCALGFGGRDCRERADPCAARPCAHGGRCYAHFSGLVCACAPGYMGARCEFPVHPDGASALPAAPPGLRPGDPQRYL
Assay: SPR Biacore 8K, Ab captured on Protein A
Answers are plain numbers, in s⁻¹.

Exercise: Quick check: koff of hu30L2H6 (antibody, human IgG1, kappa, V domains shown) VH: EVRLVQSGAEVKKPGASVKVSCKASGYTFTDYYMNWVRQAPGQSLEWMGIINPYNVDTSYNQKFRGRVTLTVDKSASTAYMELSSLRSEDTAVYYCARYHYGPHLEGYFDVWGQGTTVTVSS VL: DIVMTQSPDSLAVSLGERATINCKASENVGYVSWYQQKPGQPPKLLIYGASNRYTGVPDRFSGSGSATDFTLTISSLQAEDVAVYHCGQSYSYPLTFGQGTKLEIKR ?
Solution: 0.000988

--- query ---
Exercise: Quick check: koff of hu30L1H8 (antibody, human IgG1, kappa, V domains shown) VH: EVRLVQFGAVVKKPGASVKVSCKASGYTFTDYYMNWVRQAPGQSLEWMGIINPYTGDTSYNQKFRGRVTLTVDKSSSTAYMELSSLRSEDTAVYYCARYHYGPHLEGYFDVWGQGTTVTVSS VL: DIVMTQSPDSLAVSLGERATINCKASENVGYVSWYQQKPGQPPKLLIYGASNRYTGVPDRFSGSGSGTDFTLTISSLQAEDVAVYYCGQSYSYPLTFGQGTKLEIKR ?
Solution: 0.00109

All figures here come from patent US20250376519A1.
